Would you mind telling me the reported Sterilization Time of each entry?
system: Microsporum canis; test: Contact fungicidal screen, Microsporum canis; type: cell-based; settings: 1000 PPM; 0.1M NaOAc pH 4.6
Numbers only, in min.

Some solved cases for reference:
SMILES_STRING	MEASUREMENT_UNIT	Sterilization Time
CC(C)(CCC(=O)O)N(Cl)Cl	min	0.5
CC(C)(CCCCC(=O)O)N(Cl)Cl	min	0.5
CC(C)(CC(=O)O)N(Cl)Cl	min	2.5

Go through the items and report each one's Sterilization Time.
1. CC(C)(COC(=O)CCC(=O)O)N(Cl)Cl
2. CC(C)(COC(=O)CCCC(=O)O)N(Cl)Cl

Reply:
1. 2.5
2. 2.5
